Reference source for all entries: patent US20120034231A1

Let's look at some binders and their measured EC50.
biological target: T1, human IL12Rβ1 (human, UniProt P42701 24-662); assay: FACS on Baf3 cells transfected with human IL12Rβ1, IgG4
T1 construct: On stably transfected Ba/F3 cells in FACS; on primary human T cells within PBMC in the functional assay; also called human IL12Rβ1 transfected Baf3 cells; Ba/F3/IL12Rβ1 expressing cells
State the value with its unit after it.

Before answering, review these 2 worked examples.
{"columns": ["BINDER", "EC50"],
 "data": [
  ["MOR05271 IgG4 (antibody, V domains shown, IgG4) VH: QVQLKESGPALVKPTQTLTLTCTFSGFSLSTSTMGVSWIRQPPGKALEWLAWIYWDDDKDYSTSLKSRLTISKDTSKNQVVLTMTNMDPVDTATYYCARANPDLGYFDYWGQGTLVTVSS VL: DIALTQPASVSGSPGQSITISCTGTSSDLGESNYVSWYQQHPGKAPKVMIYDVNKRPSGVSNRFSGSKSGNTASLTISGLQAEDEADYYCGSYDEEDNVFGGGTKLTVLG", "0.143 nM"],
  ["MOR05281 IgG4 (antibody, V domains shown, IgG4) VH: QVQLKESGPALVKPTQTLTLTCTFSGFSLSTRGVGVSWIRQPPGKALEWLALIYWDEDKYYSTSLKTRLTISKDTSKNQVVLTMTNMDPVDTATYYCARYQSGYYYNNDGWGVDIWGQGTLVTVSS VL: DIQMTQSPSSLSASVGDRVTITCRASQSISSWLNWYQQKPGKAPKLLIYAASSLQSGVPSRFSGSGSGTDFTLTISSLQPEDFATYYCQQYYAFPHTFGQGTKVEIKR", "1.2 nM"]
]}

API: the following record is the query input.
[Q] Tell me the measured EC50 of MOR05286 IgG4 (antibody, V domains shown, IgG4; also called MOR5286) VH: QVQLKESGPALVKPTQTLTLTCTFSGFSLSTSGMGVSWIRQPPGKALEWLALIDWTDDKYYSTSLKTRLTISKDTSKNQVVLTMTNMDPVDTATYYCARTVGKGLYRVDNWGQGTLVTVSS VL: DIELTQPPSVSVAPGQTARISCSGDNLGSKFAYWYQQKPGQAPVLVIYDDSKRPSGIPERFSGSNSGNTATLTISGTQAEDEADYYCQSWDSSSGNDVFGGGTKLTVLG , please.
[A] 2.4 nM
